Quick list: IC50 per entry.
# system-tested: MYT1 protein (Homo sapiens (Human))
# Sequence (Q99640 whole entry): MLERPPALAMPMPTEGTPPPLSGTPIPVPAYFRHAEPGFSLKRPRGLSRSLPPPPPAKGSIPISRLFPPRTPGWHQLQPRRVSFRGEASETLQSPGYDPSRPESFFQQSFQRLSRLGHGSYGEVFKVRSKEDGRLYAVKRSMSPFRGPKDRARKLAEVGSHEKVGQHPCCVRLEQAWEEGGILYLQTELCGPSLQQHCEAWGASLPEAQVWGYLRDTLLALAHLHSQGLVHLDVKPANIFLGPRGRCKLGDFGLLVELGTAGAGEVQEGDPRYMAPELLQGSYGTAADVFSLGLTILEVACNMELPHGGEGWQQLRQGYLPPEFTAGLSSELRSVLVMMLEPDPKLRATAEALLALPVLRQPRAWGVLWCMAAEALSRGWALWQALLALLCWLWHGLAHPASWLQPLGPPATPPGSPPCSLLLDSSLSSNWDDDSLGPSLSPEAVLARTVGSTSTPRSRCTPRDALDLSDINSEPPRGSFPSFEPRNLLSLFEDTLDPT
# assay-explanation: Test for binding to ATP binding site of MYT1 (Kinase Tracer 178 / Eu-Anti-GST antibody TR-FRET)
# measurement-setup: ATP binding site of MYT1, 30 minutes at room temperature
Answer with the number, then the unit.

Solved cases (10 shown):
molecule	IC50
Nc1c(-c2cc(F)c(F)c3[nH]ncc23)c2cc(Br)c3ncccc3c2[nH]c1=O [Compound C66]	4.9 nM
Nc1c(-c2ccc(F)c3[nH]ncc23)c2cc(CC(F)F)c3ncccc3c2[nH]c1=O [Compound C170]	3.3 nM
Nc1c(-c2ccc(F)c3[nH]ncc23)c2cc(C3CCN(C4COC4)CC3)c3ncccc3c2[nH]c1=O [Compound C135]	2.3 nM
Nc1c(-c2ccc(F)c3[nH]ncc23)c2ccc3ccccc3c2[nH]c1=O [Compound B32]	3 nM
C[C@H](Oc1cc2c(-c3ccc(F)c4[nH]ncc34)c(N)c(=O)[nH]c2c2cccnc12)C(F)(F)F [Compound C22]	7.9 nM
Cc1cc2c(-c3ccc(F)c4[nH]ncc34)c(N)c(=O)[nH]c2c2ncn(C)c12 [Compound M2]	14 nM
Nc1c(-c2ccc(F)c3[nH]ncc23)c2cc(N3CCC(C(F)(F)F)CC3)c3ncccc3c2[nH]c1=O [Compound C131]	33 nM
Nc1c(-c2ccc(F)c3[nH]ncc23)c2cc(Br)c3ncsc3c2[nH]c1=O [Compound K1]	1.7 nM
Cc1cc2c(-c3ccc(C)c4[nH]ncc34)c(N)c(=O)[nH]c2c2cccnc12 [Compound C153]	4.4 nM
Nc1c(-c2cc(F)c(F)c3[nH]ncc23)c2cc(-c3cccnc3)c3ncccc3c2[nH]c1=O [Compound C215]	2.4 nM

Query for MYT1 protein (Homo sapiens (Human)): what IC50 does the record show for Nc1c(-c2ccc(F)c3[nH]ncc23)c2cc(N3CCOCC3)c3ncccc3c2[nH]c1=O [Compound C122, 2,2,2-trifluoroacetate] ? 4.5 nM

Query for MYT1 protein (Homo sapiens (Human)): what IC50 does the record show for Nc1c(-c2ccc(F)c3[nH]ncc23)c2cc(I)c3ccc(Cl)cc3c2[nH]c1=O [Compound B9] ? 120 nM

Query for MYT1 protein (Homo sapiens (Human)): what IC50 does the record show for CC(C)Oc1cc2c(-c3ccc(Cl)c4[nH]ncc34)c(N)c(=O)[nH]c2cc1Cl [Compound A8] ? 23 nM

Query for MYT1 protein (Homo sapiens (Human)): what IC50 does the record show for Nc1c(-c2ccc(F)c3[nH]ncc23)c2cc(C3CC3)c3cccc(Cl)c3c2[nH]c1=O [Compound B20] ? 42 nM

src = patent US20260062412A1
